Form field: T/C (one value per entry).
- Test system: L1210 leukemia ip in BDF1 mice, survival T/C
- Assay Remarks: NCI In Vivo Anticancer Drug Screen. Data for tumor model L1210 Leukemia (intraperitoneal) in B6D2F1 (BDF1) mice
- Condition Set: endpoint: mean survival time; dose: 100.0 mg/kg/injection; schedule: Q04DX003 (ip); vehicle: other; higher = longer survival
Inconclusive results and toxic doses are left out.

Record excerpt, results attached:
# Compound, Test System, T/C
records = [
    ("C=CCCCCCCCCC(=O)N/N=C/c1ccc(NC(C)=O)cc1", "L1210 leukemia ip in BDF1 mice, survival T/C", "94 % of control"),
    ("C1CCC2(CC1)SC1(CCCCC1)SC1(CCCCC1)S2", "L1210 leukemia ip in BDF1 mice, survival T/C", "95 % of control"),
    ("Cc1ccc(S(=O)(=O)Oc2c(Cl)c(Cl)c(Cl)c(Cl)c2Cl)cc1", "L1210 leukemia ip in BDF1 mice, survival T/C", "92 % of control"),
]

Q: Request the reported T/C associated with N#Cc1c(F)c(F)c(Oc2c(F)c(F)c(F)c(Oc3c(F)c(F)c(C#N)c(F)c3F)c2F)c(F)c1F
Result: 100 % of control

Q: And what about the compound c1ccc(NC(c2ccccc2)C(Nc2ccccc2)(c2ccccc2)c2ccccc2)cc1 (centres undefined) ?
Result: 89 % of control

Q: And what about the compound O=C1NC(c2cccc3ccccc23)Nc2ccccc21 (centres undefined) ?
Result: 103 % of control

Q: And what about the compound COC(=O)CNc1ccc(O)cc1 ?
Result: 102 % of control

Q: And what about the compound CC(C(=O)O)N(Cc1ccccc1)S(C)(=O)=O (centres undefined) ?
Result: 94 % of control

Q: And what about the compound COc1ccc(C(=O)Nc2cc(Cl)ccc2OC)cc1 ?
Result: 97 % of control

---

- System: L1210 leukemia ip in BDF1 mice, survival T/C
- Assay Remarks: NCI In Vivo Anticancer Drug Screen. Data for tumor model L1210 Leukemia (intraperitoneal) in B6D2F1 (BDF1) mice
- Condition Set: endpoint: mean survival time; dose: 200.0 mg/kg/injection; schedule: Q01DX001 (ip); vehicle: saline with Tween-80; higher = longer survival
Inconclusive results and toxic doses are left out.
Readout: T/C

Record excerpt, results attached:
# Compound, Readout, Result
records = [
    ("CSc1ccc(NC(=O)OCCOc2ccccc2)cc1", "T/C", "94 % of control"),
    ("CCc1nc(Cl)c(Cl)[nH]1", "T/C", "103 % of control"),
    ("CCCCN(CC)/N=N/c1nc[nH]c1C(N)=O", "T/C", "101 % of control"),
    ("CCCCCCCC#N", "T/C", "97 % of control"),
    ("Cc1ccc(Cl)cc1NC(=O)N1CCCCC1C (stereo not drawn)", "T/C", "103 % of control"),
    ("O=c1ccc2cc3ccc(=O)oc3cc2o1", "T/C", "97 % of control"),
    ("CCCCN1C(=O)c2cccnc2C1=O", "T/C", "97 % of control"),
    ("Nc1nc(NCCCc2ccccc2)c(N=Nc2ccccc2)c(=O)[nH]1", "T/C", "107 % of control"),
    ("Cc1ccc(-c2c(C)c(-c3ccccc3)c(-c3ccccc3)c(C)c2-c2ccccc2)cc1C", "T/C", "100 % of control"),
    ("Cc1ccccc1C(O)c1ccccc1Cl (stereo not drawn)", "T/C", "102 % of control"),
]

Q: Request the reported T/C associated with CN(C)c1ccc(/C=N/NC(=O)c2ccc(O)cc2)c(Cl)c1
Result: 94 % of control

Q: And what about the compound NC(=O)/C=C/C(=O)O ?
Result: 108 % of control

Q: And what about the compound Cc1ccc(Cl)cc1NC(=O)NCc1cccnc1 ?
Result: 90 % of control

Q: And what about the compound CCOC(=O)Nc1ccc([N+](=O)[O-])cc1[N+](=O)[O-] ?
Result: 98 % of control

Q: And what about the compound CC(=O)Nc1ccc(NC(=O)Nc2cc(C)ccc2C)cc1 ?
Result: 89 % of control

---

Form field: T/C (one value per entry).
- Test system: L1210 leukemia ip in BDF1 mice, survival T/C
- Assay Remarks: NCI In Vivo Anticancer Drug Screen. Data for tumor model L1210 Leukemia (intraperitoneal) in B6D2F1 (BDF1) mice
- Condition Set: endpoint: mean survival time; dose: 400.0 mg/kg/injection; schedule: Q04DX003 (ip); vehicle: saline with Tween-80; higher = longer survival
Inconclusive results and toxic doses are left out.

# Molecule, T/C
measured = [
    ("CCS(=O)CCNC(=O)NS(=O)(=O)c1ccc(C)cc1 (stereo not given)", "97 % of control"),
]

Q: Request the reported T/C associated with CC(=O)OCC1OC(C(N)=O)C(OC(C)=O)C1OC(C)=O (stereo not given)
Result: 98 % of control

Q: And what about the molecule NC(=O)C1CCCCC1C(N)=O (stereo not given) ?
Result: 96 % of control

---

- Test system: L1210 leukemia ip in BDF1 mice, survival T/C
- Assay Remarks: NCI In Vivo Anticancer Drug Screen. Data for tumor model L1210 Leukemia (intraperitoneal) in B6D2F1 (BDF1) mice
- Condition Set: endpoint: mean survival time; dose: 200.0 mg/kg/injection; schedule: Q01DX001 (ip); vehicle: Klucel (hydroxypropylcellulose) (HPC); higher = longer survival
Toxic doses and inconclusive results are not listed.
Form field: T/C (one value per entry).

Record excerpt, results attached:
# Compound Structure, T/C
data = [
    ("CCOC(=O)Cc1c(C(=O)OCC)[nH]c(C)c1C(C)=O", "95 % of control"),
    ("Nc1[nH]c(=S)ncc1-c1cccc(Cl)c1", "114 % of control"),
]

Now for another entry.
Q: Request the reported T/C associated with Cc1ccc(C(=O)O)cc1-n1c(-c2ccc(Cl)cc2)nnc1-c1ccc(Br)cc1
Result: 96 % of control

---

- System: L1210 leukemia ip in BDF1 mice, survival T/C
- Assay Remarks: NCI In Vivo Anticancer Drug Screen. Data for tumor model L1210 Leukemia (intraperitoneal) in B6D2F1 (BDF1) mice
- Condition Set: endpoint: mean survival time; dose: 100.0 mg/kg/injection; schedule: Q04DX003 (ip); vehicle: saline with Tween-80; higher = longer survival
Inconclusive results and toxic doses are left out.
Form field: T/C (one value per entry).

# Molecule, Result
data = [
    ("Cc1nc(N)c(Cl)nc1C", "102 % of control"),
]

Q: I'm curious: which T/C was measured for CN(C)c1ccc(/C=N/NC(=O)c2ccc(O)cc2)c(Cl)c1 tested on L1210 leukemia ip in BDF1 mice, survival T/C?
Result: 104 % of control

Q: And what about the molecule CC(C)C(=O)[O][Sn]([CH2]c1ccccc1)([CH2]c1ccccc1)[CH2]c1ccccc1 ?
Result: 88 % of control

Q: And what about the molecule C=C(C)COc1cc(C=NCCCC)c(C)cc1C ?
Result: 96 % of control

Q: And what about the molecule COc1ccc(/C=N/NC(N)=S)cc1 ?
Result: 95 % of control

---

Form field: T/C (one value per entry).
- Tested on: L1210 leukemia ip in BDF1 mice, survival T/C
- Assay Remarks: NCI In Vivo Anticancer Drug Screen. Data for tumor model L1210 Leukemia (intraperitoneal) in B6D2F1 (BDF1) mice
- Condition Set: endpoint: mean survival time; dose: 12.5 mg/kg/injection; schedule: Q01DX009 (ip); vehicle: saline with Tween-80; higher = longer survival
- Experimental: The antitumor activity of compounds was measured in mice bearing transplantable tumors. Survival or tumor size were measured and the results are expressed as the measurement made in the treated group (T) divided by the measurement made in the vehicle treated control group (C). The tumor model used in this assay is L1210 Leukemia (intraperitoneal) in B6D2F1 (BDF1) mice
Inconclusive results and toxic doses are left out.

Record excerpt, results attached:
# Compound, Readout, Result
rows = [
    ("COc1ccc(N=C=S)cc1N=C=S", "T/C", "103 % of control"),
    ("CCCCNC(C)(C)C(SSSC(C)=O)c1ccco1 (centres undefined)", "T/C", "100 % of control"),
    ("C/C(=N\\N)c1ccc(Cl)cc1", "T/C", "101 % of control"),
]

Q: Request the reported T/C associated with COC1OC(OC)[CH]([Hg][Cl])C1OC (centres undefined)
Result: 91 % of control

Q: And what about the compound Nc1cnccc1NCCc1cccc(O)c1 ?
Result: 97 % of control

Q: And what about the compound O=C(c1ccccc1)C1C(c2ccccc2)OP(c2ccccc2)(c2ccccc2)(c2ccccc2)C1c1ccccc1 (centres undefined) ?
Result: 97 % of control

Q: And what about the compound O=NN(CCCl)C(=O)c1cc(Cl)cc(Cl)c1 ?
Result: 115 % of control

Q: And what about the compound [Cu+2].[NH-]c1ccccc1C(=O)O.[NH-]c1ccccc1C(=O)O ?
Result: 101 % of control

Q: And what about the compound COC(OC)C1OC(c2ccccc2)OC2COC(c3ccccc3)OC21 (centres undefined) ?
Result: 92 % of control

Recorded values, source PubChem BioAssay AID248.
